Target Desc: Stimulator of interferon genes protein (Homo sapiens)
Test Details: Agonist activity at STING in human THP1 cells assessed as assessed as increase in IFNbeta secretion at 30 uM measured after 5 hrs by AlphaLISA assay relative to 2'3'-cGAMP
Type: cell-based
Assay Context: THP-1
Metric: Activity (%)

| Compound | Quantity Unit | Value Measured |
| --- | --- | --- |
| COc1cc2sc(C(=O)C[C@H](C)C(=O)O)nc2nc1OC | % | 14 |
| COc1cc2cc(C(=O)CCC(=O)O)sc2nc1OC | % | 146 |
| COc1cc2sc(C(=O)C[C@H](C)C(=O)O)nc2cc1Br | % | 11 |
| CCC(CC(=O)c1cc2nc(OC)c(OC)cc2s1)C(=O)O (stereo unspecified) | % | 85 |
| COc1cc2nc(C(=O)CCC(=O)O)sc2cc1OC | % | 56 |
| COc1cc2sc(C(=O)C3CC3C(=O)O)cc2nc1OC (stereo unspecified) | % | 100 |
